Origin of measurements: ChEMBL document CHEMBL2086317

# TARGET OR TEST SYSTEM: G-protein coupled receptor 35 (Homo sapiens, UniProt Q9HC97)
# Sequence (Q9HC97 whole entry, the tested form may be a part): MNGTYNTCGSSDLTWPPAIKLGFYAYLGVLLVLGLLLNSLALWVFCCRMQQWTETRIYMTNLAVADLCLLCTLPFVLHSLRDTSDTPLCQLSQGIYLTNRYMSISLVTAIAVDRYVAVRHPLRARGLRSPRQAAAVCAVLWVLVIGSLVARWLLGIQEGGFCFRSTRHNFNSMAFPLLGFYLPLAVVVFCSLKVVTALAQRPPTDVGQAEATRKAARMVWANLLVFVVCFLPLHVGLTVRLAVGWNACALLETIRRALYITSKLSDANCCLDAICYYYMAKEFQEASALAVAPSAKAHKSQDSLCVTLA
# TEST NAME: Agonist activity at human GPR35 expressed in U2OS cells coexpressing Gal4-VP16/beta-arrestin fusion protein after 5 hrs by tango beta-arrestin translocation reporter gene assay relative to zaprinast
# Assay type: functional, cell-based
Below: a set of entries, each annotated with reported Efficacy.
RESULT TYPE: Efficacy

STRUCTURE SMILES STRING | REPORTED VALUE
O=C(O)c1[nH]c2cc(O)c(O)cc2c1-c1ccsc1 | 18%
Cc1c(C(=O)O)oc2cc(O)c(O)cc12 | 27%
O=C(O)c1cc2cc(O)c(O)cc2s1 | 86%
O=C(O)c1[nH]c2cc(O)c(O)cc2c1-c1cc(F)cc(F)c1 | 48%
